# assay.system: MK2 (Homo sapiens)
# Sequence (P49137 whole entry): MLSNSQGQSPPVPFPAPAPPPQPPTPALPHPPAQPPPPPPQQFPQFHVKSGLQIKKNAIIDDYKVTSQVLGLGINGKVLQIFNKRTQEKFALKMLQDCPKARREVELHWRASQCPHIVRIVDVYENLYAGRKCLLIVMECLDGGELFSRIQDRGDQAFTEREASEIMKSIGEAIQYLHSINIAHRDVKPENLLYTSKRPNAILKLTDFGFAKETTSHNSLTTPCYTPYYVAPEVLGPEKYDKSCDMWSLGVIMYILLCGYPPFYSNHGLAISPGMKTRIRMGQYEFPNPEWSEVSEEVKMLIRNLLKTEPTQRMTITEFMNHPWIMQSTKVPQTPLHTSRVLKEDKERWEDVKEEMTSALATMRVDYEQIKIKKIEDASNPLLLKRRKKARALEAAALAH
# experimental.details: MK2 degradation in human SW1353 cells (MSD, 24 h)
# Type: cell-based
# Parameters: endogenous in cells; host or cells: SW-1353 (ATCC HTB-94)
# measurement.context: read-out: MK2 MSD SW1353 degradation 24 h GMean External Abs DC50
measure.name: DC50

Guide cases for DC50, answers given:
{"columns": ["molecule", "measure.name", "assay.result"],
 "data": [
  ["Cn1c(=O)n(C2CCC(=O)NC2=O)c2ccc(N3CCC(CN4CCN(c5cc(C#N)cc(-n6cc(-c7ccc8c(c7)CCNC8=O)c(N)n6)c5)CC4)CC3)cc21 (centres unmarked)", "DC50", "> 100 nM"],
  ["C[C@@H]1CNc2c(sc3ccc4nc(-c5ccc(N6CCC(CN7CCN(c8ccc9c(c8)n(C)c(=O)n9C8CCC(=O)NC8=O)CC7)CC6)cc5Cl)ccc4c23)C(=O)N1 (some centres unmarked)", "DC50", "1 to 10 nM"],
  ["O=C1CCC(N2Cc3cc(N4CCN(CC5CCN(c6ccc(F)c(-c7cc(-c8cc9c([nH]8)CCNC9=O)ccn7)c6)CC5)CC4)ccc3C2=O)C(=O)N1 (centres unmarked)", "DC50", "> 100 nM"]
]}

Record DC50 per entry; entries follow.
1. Cn1c(=O)n(C2CCC(=O)NC2=O)c2cccc(C3CCN(CC4CCN(c5ccc(-c6cc(-c7cc8c([nH]7)CCNC8=O)ccn6)c(F)c5)CC4)CC3)c21 (centres unmarked)
2. Cc1cc(-c2ccc3c(ccc4sc5c(c43)NC[C@@H](C)NC5=O)n2)cnc1N1CCN(CCCc2ccc3c(c2)n(C)c(=O)n3C2CCC(=O)NC2=O)CC1 (some centres unmarked)
3. COc1cc(-c2ccc3c(ccc4sc5c(c43)NC[C@@H](C)NC5=O)n2)cc(N2CCN(CC3CCN(c4ccc5c(c4)n(C)c(=O)n5C4CCC(=O)NC4=O)CC3)CC2)c1 (some centres unmarked)
4. C[C@@H]1CNc2c(sc3ccc4nc(-c5ccc(C6CCN(CC7CCN(c8cccc9c8n(C)c(=O)n9C8CCC(=O)NC8=O)CC7)CC6)nc5)ccc4c23)C(=O)N1 (some centres unmarked)
5. C[C@@H]1CNc2c(sc3ccc4nc(-c5cccc(N6CCC(CN7CCN(c8cccc9c(N%10CCC(=O)NC%10=O)cncc89)CC7)CC6)c5)ccc4c23)C(=O)N1

output:
< 1 nM
1 to 10 nM
< 1 nM
< 1 nM
1 to 10 nM

====

# assay.system: UniProtKB P49137
# experimental.details: MK2 degradation in human SW1353 cells (MSD, 24 h)
# Format: cell-based
# Parameters: endogenous in cells; host or cells: SW-1353 (ATCC HTB-94)
# measurement.context: read-out: MK2 MSD SW 1353 24 h Dmax %
measure.name: Dmax

Answered cases to consult:
{"columns": ["compound", "assay.system", "Dmax"],
 "data": [
  ["C[C@@H]1CNc2c(sc3ccc4nc(-c5ccc(N6CCC(CN7CCN(c8ccc9c(c8)n(C)c(=O)n9C8CCC(=O)NC8=O)CC7)CC6)cc5Cl)ccc4c23)C(=O)N1 (some centres unmarked)", "UniProtKB P49137", "> 75%"],
  ["C[C@@H]1CNc2c(sc3ccc4nc(-c5cccc(N6CCN(CC7CCN(c8ccc9c(c8)CN(C8CCC(=O)NC8=O)C9=O)CC7)CC6)c5)ccc4c23)C(=O)N1 (some centres unmarked)", "UniProtKB P49137", "> 75%"],
  ["C[C@@H]1CNc2c(sc3ccc4nc(-c5ccc(N6CCC(CN7CCC(c8cccc9c8n(C)c(=O)n9C8CCC(=O)NC8=O)CC7)CC6)cc5)ccc4c23)C(=O)N1 (some centres unmarked)", "UniProtKB P49137", "> 75%"],
  ["C[C@@H]1CNc2c(sc3ccc4nc(-c5ccc(N6CCN(CCc7ccc8c(c7)n(C)c(=O)n8C7CCC(=O)NC7=O)CC6)nc5)ccc4c23)C(=O)N1 (some centres unmarked)", "UniProtKB P49137", "> 75%"],
  ["C[C@@H]1CNc2c(sc3ccc4nc(-c5ccnc(N6CCC(CN7CCN(c8ccc9c(c8)n(C)c(=O)n9C8CCC(=O)NC8=O)CC7)CC6)c5)ccc4c23)C(=O)N1 (some centres unmarked)", "UniProtKB P49137", "> 75%"]
]}

Batch of 5 compounds: report Dmax for each.
1. C[C@@H]1CNc2c(sc3ccc4nc(-c5cc(Cl)cc(N6CCN(CC7CCN(c8ccc9c(c8)n(C)c(=O)n9C8CCC(=O)NC8=O)CC7)CC6)c5)ccc4c23)C(=O)N1 (some centres unmarked)
2. Cn1c(=O)n(C2CCC(=O)NC2=O)c2ccc(N3CCC(CN4CCN(c5cc(-c6ccc7cc[nH]c7c6)cc(-n6cc(-c7ccc8c(c7)CCNC8=O)c(N)n6)c5)CC4)CC3)cc21 (centres unmarked)
3. C[C@@H]1CNc2c(sc3ccc4nc(-c5ccc(N6CCN(CCC7CCN(c8cccc9c8n(C)c(=O)n9C8CCC(=O)NC8=O)CC7)CC6)cc5)ccc4c23)C(=O)N1 (some centres unmarked)
4. Cn1c(=O)n(C2CCC(=O)NC2=O)c2cccc(N3CC(N4CCN(c5ccc(-c6cc(-c7cc8c([nH]7)C7(CC7)CNC8=O)ccn6)cc5)CC4)C3)c21 (centres unmarked)
5. C[C@@H]1CNc2c(sc3ccc4nc(-c5ccc(N6CCN(C[C@@H]7CCN(c8ccc9c(c8)n(C)c(=O)n9C8CCC(=O)NC8=O)C7)CC6)cc5)ccc4c23)C(=O)N1 (some centres unmarked)

output:
> 75%
> 75%
> 75%
> 75%
> 75%

input: I would be grateful if you could share the reported Dmax for C[C@@H]1CNc2c(sc3ccc4nc(-c5ccc(N6CCN(CC7CCN(c8ccc(C9CCC(=O)NC9=O)cc8)CC7)CC6)nc5)ccc4c23)C(=O)N1 (some centres unmarked) .
output: > 75%

From: patent US20230135894A1
